Kindly state Kd for each of the entries shown.
Target: BoNT/B3 (Clostridium botulinum)
Test: yeast scFv FACS
Answers are plain numbers, in nM.

The following binders have reported results that may help.
BINDER	Kd, nM
18A6 scFv (scFv) scFv: EVQLQQSGPELVKPGASVKISCKASGYTFTDNYINWVKQRPGQGLEWIGWIYPGSGNTKYNEKFKGKATLTVDTSSNTAYMQLTGLASDDSAVYFCARVNFYVSWDYWGQGTSVTVSSVDLKSGGSTSGSGKPGSGEGSSGSAREIVLTQSPAIMSASPGEKVTMTCSASSSISYMHWFQQKPGMSPKRRIFDTSKLASGVPARFSGSGSGTSYSLTISSMEAEDAGTYYCHQRSSYPFTFGGGTKLELK	27.9
19D2 scFv (scFv) scFv: EVQLQQSGGELARPGSSVKLSCKASGYSFTGYSLTWVKQTPGQGLEWIGEIYPRSGNTYYNENFQGKATLTADESSSTAYMELRSLTSEDSAVYFCARDFYDYDGGGRGYWGQGTTLTVSSVDLKSGGSTSGSGKPGSGEGSSGSARDIVMTQTPAIMSASPGEKVTITCSASSSVSYMHWYQQKPGTSPKLWIYSTSNLASGVPARFSGSGSGTSYSLTISRMEAEDAATYYCQQRSSYPYTFGGGTKLEIK	1.47

Now for another entry.
Q. Sample 18D10 scFv (scFv) scFv: QVQLKQSGIEVMKPGASVKLSCKASGYPFTAYWIEWVKQRPGHGLEWIGEFLPGGISTNFNEKFKGKATFSADTSSNSAYIQLNSLTTEDSAIYYCVLTGTGFDYWGQGTSVTVSSVDLKSGGSTSGSGKPGSGEGSSGSARENVLTQSPAIMSASPGEKVTMTCSASSSVSYMHWYQQKSGTSPKRWIYDTSKLASGVPARFSGSGSGTSYSLTISSMEAEDAATYYCQQWSSNPLTFGAGTKLELK — what was its Kd?
A. 3.35
